- TESTED_TARGET: HLA-DR DRB1*0101 (DR1) (Homo sapiens, UniProt P01903+P01911, A100R/D57E/F55L/F60I/F76Y/I96L/L162R/M171V/P40L/Q125E/R42F/V115G/Y59C)
- MEASUREMENT_PROTOCOL: biochemical
- Format: binding
- MEASUREMENT_PARAMETERS: DRB1 *0101
Below, each entry is listed alongside its reported IC50.
RECORDED_ENDPOINT: IC50

[
  {
    "STRUCTURE_SMILES": "CC[C@H](C)[C@H](NC(=O)[C@@H](NC(=O)[C@@H]1CCCN1C(=O)[C@H](Cc1ccccc1)NC(=O)[C@H](Cc1ccccc1)NC(=O)[C@H](Cc1ccc(O)cc1)NC(=O)[C@H](CCC(N)=O)NC(=O)[C@H](Cc1c[nH]c2ccccc12)NC(=O)[C@H](CC(N)=O)NC(=O)CNC(=O)[C@@H](N)C(C)C)C(C)C)C(=O)N[C@@H](Cc1ccccc1)C(=O)N[C@@H](CO)C(=O)N[C@@H](CCCCN)C(=O)N[C@@H](C)C(=O)O",
    "RECORDED_ENDPOINT": "IC50",
    "TEST_RESULT": "37 nM"
  },
  {
    "STRUCTURE_SMILES": "CC[C@H](C)[C@H](NC(=O)CNC(=O)[C@H](CCC(N)=O)NC(=O)[C@H](CC(C)C)NC(=O)[C@@H](NC(=O)CNC(=O)[C@H](CC(N)=O)NC(=O)[C@H](CS)NC(=O)[C@@H](NC(=O)[C@H](CC(C)C)NC(=O)[C@@H]1CCCN1C(=O)CNC(=O)CN)C(C)C)C(C)C)C(=O)N[C@H](C(=O)N[C@@H](CO)C(=O)O)[C@@H](C)O",
    "RECORDED_ENDPOINT": "IC50",
    "TEST_RESULT": "3350 nM"
  },
  {
    "STRUCTURE_SMILES": "CC[C@H](C)[C@H](NC(=O)[C@H](CC(N)=O)NC(=O)[C@H](CCC(=O)O)NC(=O)[C@H](C)NC(=O)[C@H](CCCCN)NC(=O)[C@H](CC(C)C)NC(=O)[C@H](CCC(=O)O)NC(=O)[C@H](CC(=O)O)NC(=O)[C@@H](N)CC(C)C)C(=O)N[C@@H](CCCCN)C(=O)N[C@@H](CCCCN)C(=O)N[C@@H](Cc1ccccc1)C(=O)N[C@@H](CC(C)C)C(=O)N[C@@H](Cc1ccc(O)cc1)C(=O)N[C@@H](CC(N)=O)C(=O)O",
    "RECORDED_ENDPOINT": "IC50",
    "TEST_RESULT": "1140 nM"
  }
]

====

- TESTED_TARGET: HLA-DR DRB1*0101 (DR1) (Homo sapiens, UniProt P01903+P01911, A100R/D57E/F55L/F60I/F76Y/I96L/L162R/M171V/P40L/Q125E/R42F/V115G/Y59C)
- MEASUREMENT_PROTOCOL: biochemical
- Format: binding
- MEASUREMENT_PARAMETERS: read-out: DRB1 *0101
pIC50: −log10 of the molar value.
Below, each entry is listed alongside its reported pIC50.

[
  {
    "SEQUENCE_ENTRY": "AAFAAAKTAAAFA",
    "pIC50": 8.89
  },
  {
    "SEQUENCE_ENTRY": "TAWTIVRVEILRYFY",
    "pIC50": 8.11
  },
  {
    "SEQUENCE_ENTRY": "RGGMVFELANSIYLP",
    "pIC50": 8.00
  },
  {
    "SEQUENCE_ENTRY": "SHDLMLLRLSEPAK",
    "pIC50": 7.25
  },
  {
    "SEQUENCE_ENTRY": "KKCLNEILIRCHCQ",
    "pIC50": 5.03
  },
  {
    "SEQUENCE_ENTRY": "SHDLMLLRLSEPAEL",
    "pIC50": 6.27
  },
  {
    "SEQUENCE_ENTRY": "YLVTGERGFFYTKYT",
    "pIC50": 5.94
  },
  {
    "SEQUENCE_ENTRY": "LSHFLKEKGGLEGL",
    "pIC50": 6.27
  },
  {
    "SEQUENCE_ENTRY": "KKNIIALLIIPPKIIA",
    "pIC50": 7.89
  }
]
